Just for reference, ChEMBL document CHEMBL4689842 is where these values come from.

# System: U2OS
# MEASUREMENT_DESCRIPTION: Multiplex assay against U2OS
# Type: toxicity, cell-based
# STATED_CONDITIONS: human, 48 h, 10 µM, compound concentration 10 uM, replicate 1
EXPERIMENTAL_READOUT: Population Apoptotic (%)
Numbers only; they are read as %.

State, in one line, measured Population Apoptotic (%) of Oc1cccc(-c2nc(N3CCOCC3)c3oc4ncccc4c3n2)c1
70

Answer with reported Population Apoptotic (%) of CN(c1cc(C(F)(F)F)nc(OCCC(=O)O)n1)c1cccc2c1CCC2
50

Annotate the molecule c1ccc(-c2oc3ncnc(NC[C@@H]4CCCO4)c3c2-c2ccccc2)cc1 with its measured Population Apoptotic (%).
70

Return the recorded Population Apoptotic (%) value; entry: N#Cc1cccc(C(=O)Nc2cc(-c3ccccc3)nn2-c2ccccc2)c1
59

For CN1CCN(Cc2ccc(-c3cnc4[nH]cc(-c5ccc6[nH]ccc6c5)c4c3)cc2)CC1 , write its Population Apoptotic (%).
100

# return recorded Population Apoptotic (%) for entry CCCCN(CC)c1nc(C)nc2c1c(C)cn2-c1c(C)cc(C)cc1C.Cl
39

Supply recorded Population Apoptotic (%) for Cc1c(Nc2ccc(S(=O)(=O)N3CCN(C)CC3)cc2F)nc2ccc(-c3cnn(C4CC4)c3)cn2c1=O here.
43

Please report the measured Population Apoptotic (%) for CN1C(=O)[C@@H](NC(=O)c2cc3ccccc3[nH]2)N=C(c2ccccc2)c2ccccc21 [DEVAZEPIDE]
89

###

# Test system: Fibroblast
# MEASUREMENT_DESCRIPTION: Multiplex assay against human fibroblast
# Type: toxicity, cell-based
# STATED_CONDITIONS: 24 h, 1 µM, compound concentration 1 uM, replicate 1
EXPERIMENTAL_READOUT: Population Healthy Nuclei (%)
Output spec: scalar in %, unitless text.

Give recorded Population Healthy Nuclei (%). CC(/C=C1\SC(=S)N(CCCC(=O)Nc2ccc(C(=O)O)c(O)c2)C1=O)=C\c1ccccc1
50

Quote Population Healthy Nuclei (%) reported for N#Cc1cccc(C(=O)Nc2cc(-c3ccccc3)nn2-c2ccccc2)c1 please.
49

Annotate the compound CC(C)[C@H](CO)Nc1nc(Nc2cccc(Cl)c2)c2ncn(C(C)C)c2n1 [PURVALANOLA] with its measured Population Healthy Nuclei (%).
49

Give the reported Population Healthy Nuclei (%) for this compound. Cl.Cn1c2c(c3ccc(Cl)c(Cl)c31)C(C#N)C1(CCNCC1)NC2=O (centres undefined)
50

Look up and state reported Population Healthy Nuclei (%) for CC[C@H](Nc1ncnc2[nH]cnc12)c1nc2cccc(F)c2c(=O)n1-c1ccccc1 [IDELALISIB]
54

State its Population Healthy Nuclei (%): CCCCCNC(=N)N/N=C/c1c[nH]c2ccc(OC)cc12.O=C(O)/C=C\C(=O)O [TEGASEROD MALEATE]
56

Answer with the recorded Population Healthy Nuclei (%) for the compound listed here: CC[C@@H]1C(=O)N(C)c2cnc(Nc3ccc(C(=O)NC4CCN(C)CC4)cc3OC)nc2N1C1CCCC1 [BI-2536]
53

Identify the reported Population Healthy Nuclei (%) for the following entry. N#CCNC(=O)c1ccc(-c2ccnc(Nc3ccc(N4CCOCC4)cc3)n2)cc1 [MOMELOTINIB]
52

Return Population Healthy Nuclei (%) for the following compound: Cc1c(Nc2ccc(S(=O)(=O)N3CCN(C)CC3)cc2F)nc2ccc(Nc3cnn(C4CC4)c3)cn2c1=O
53

Tell me its Population Healthy Nuclei (%) given Cc1c(P(=S)(c2ccccc2)c2ccccc2)n2ccccc2[n+]1C/C=C/c1ccccc1.[Br-] as the entry.
58

Tell me measured Population Healthy Nuclei (%) for C[C@@H](Oc1cc(-n2cnc3ccc(CN4CCN(C)CC4)cc32)sc1C(N)=O)c1ccccc1C(F)(F)F [GSK-461364] please.
44

Let me know recorded Population Healthy Nuclei (%) for Oc1cccc(-c2nc(N3CCOCC3)c3oc4ncccc4c3n2)c1 [PI-103] , thanks.
46

Indicate the recorded Population Healthy Nuclei (%) value for this compound: C=CC(=O)Nc1cc(-n2c(=O)ccc3cnc4ccc(-c5ccc(NS(C)(=O)=O)cc5)cc4c32)ccc1C
44

Return Population Healthy Nuclei (%) (reported value) for this compound: CCCc1cc(C)[nH]c(=O)c1CNC(=O)c1cc(-c2ccc(N3CCN(C(C)C)CC3)nc2)cc2c1cnn2C(C)C
47

Supply Population Healthy Nuclei (%) value. Item: CN1C(=O)[C@@H](NC(=O)c2cc3ccccc3[nH]2)N=C(c2ccccc2)c2ccccc21 [DEVAZEPIDE]
46

Name the recorded Population Healthy Nuclei (%) of the item NC(=O)c1ccc2nc(-c3ccc(C4(N)CCC4)cc3)c(-c3ccccc3)n2n1 [BAY-1125976] in your answer.
36

Complete the entry with Population Healthy Nuclei (%) for Cl.NC[C@@H]1O[C@H](C23CC4CC(CC(C4)C2)C3)Cc2c1ccc(O)c2O
55

Consider the compound CC(Cc1ccc(O)c(O)c1)C(C)Cc1ccc(O)c(O)c1 (centres undefined) [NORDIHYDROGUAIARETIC ACID] . State its measured Population Healthy Nuclei (%).
63

Specify measured Population Healthy Nuclei (%) for CN(c1cc(C(F)(F)F)nc(OCCC(=O)O)n1)c1cccc2c1CCC2 .
46

Output Population Healthy Nuclei (%) of Cc1c(Nc2ccc(S(=O)(=O)N3CCN(C)CC3)cc2F)nc2ccc(-c3cnn(C4CC4)c3)cn2c1=O
60

Please list Population Healthy Nuclei (%) recorded for the compound Cc1ccc(S(=O)(=O)NC2c3ccccc3Oc3ccccc32)cc1
51

# return recorded Population Healthy Nuclei (%) for entry CCCCN(CC)c1nc(C)nc2c1c(C)cn2-c1c(C)cc(C)cc1C.Cl
49

Provide measured Population Healthy Nuclei (%) value, entry: CC(C)c1cc(Nc2nc(N3CCC[C@H](N)C3)ncc2C(N)=O)cc(C(C)C)n1
32
